tested on: K86415-001-R-J1-PDC complex spheroids, viability; assay: Anticancer human tumor K86415-001-R-J1-PDC patient-derived lung adenocarcinoma cell line growth inhibition [RAS]; details: second compound 0.00949 µM; first compound 0.00316 µM; active compounds read low
Overview of recorded viability, T/C for various compounds
measure: viability, T/C (%)

compound: C=CC(=O)Nc1cc(Nc2nccc(-c3cn(C)c4ccccc34)n2)c(OC)cc1N(C)CCN(C)C + CCn1c(-c2cccnc2C(C)OC)c2c3cc(ccc31)N1CCOC(CC(NC(=O)C(C(C)C)N(C)C(=O)C3(F)CCN(C(=O)C#CC(C)(C)N(C)C)CC3)C(=O)N3CCCC(N3)C(=O)OCC(C)(C)C2)C1
readout.number: 11.9
--
compound: CCN1CCN(Cc2ccc(Nc3ncc(F)c(-c4cc(F)c5nc(C)n(C(C)C)c5c4)n3)nc2)CC1 + CCn1c(-c2cc(N3CCN(C)CC3)cnc2C(C)OC)c2c3cc(ccc31)-c1csc(n1)CC(NC(=O)C1CC1C)C(=O)N1CCCC(N1)C(=O)OCC(C)(C)C2
readout.number: 12.5
--
compound: C=CC(=O)N1CCN(c2nc(OCC3CCCN3C)nc3c(F)c(-c4nc(N)cc(C)c4C(F)(F)F)c(Cl)cc23)C(C)C1 (centres undefined) + CCn1c(-c2cccnc2C(C)OC)c2c3cc(ccc31)N1CCOC(CC(NC(=O)C(C(C)C)N(C)C(=O)C3(F)CCN(C(=O)C#CC(C)(C)N(C)C)CC3)C(=O)N3CCCC(N3)C(=O)OCC(C)(C)C2)C1
readout.number: 13.7
--
compound: CC(C)n1nc(-c2ccc3oc(N)nc3c2)c2c(N)ncnc21 + CCn1c(-c2cccnc2C(C)OC)c2c3cc(ccc31)N1CCOC(CC(NC(=O)C(C(C)C)N(C)C(=O)C3(F)CCN(C(=O)C#CC(C)(C)N(C)C)CC3)C(=O)N3CCCC(N3)C(=O)OCC(C)(C)C2)C1
readout.number: 10.9

----------
tested on: K86415-001-R-J1-PDC complex spheroids, viability; test: Anticancer human tumor K86415-001-R-J1-PDC cell line growth inhibition [RAS]; conditions: second compound 0.0316 µM; first compound 1 µM; active = viability on the fitted dose curve at most 10% of control; inactive = the rest;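 also: spheroids exposed to agents for seven days before readout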
Outcome codes: 1 (active), 0 (inactive)

molecule: C=CC(=O)Nc1cc(Nc2nccc(-c3cn(C)c4ccccc34)n2)c(OC)cc1N(C)CCN(C)C + C=CC(=O)N1CCN(c2nc(OCC3CCCN3C)nc3c(F)c(-c4nc(N)cc(C)c4C(F)(F)F)c(Cl)cc23)C(C)C1
assigned.class: 1
//
molecule: CCN1CCN(Cc2ccc(Nc3ncc(F)c(-c4cc(F)c5nc(C)n(C(C)C)c5c4)n3)nc2)CC1 + C=CC(=O)N1CCN(c2nc(OCC3CCCN3C)nc3c(F)c(-c4nc(N)cc(C)c4C(F)(F)F)c(Cl)cc23)C(C)C1
assigned.class: 0
//
molecule: NC1c2ccccc2OC12CCN(c1cnc3c(N4CCCc5ncccc54)n[nH]c3n1)CC2 (stereo not drawn) + C=CC(=O)N1CCN(c2nc(OCC3CCCN3C)nc3c(F)c(-c4nc(N)cc(C)c4C(F)(F)F)c(Cl)cc23)C(C)C1
assigned.class: 1

----------
test system: K86415-001-R-J1-PDC complex spheroids, viability; assay: Anticancer human tumor K86415-001-R-J1-PDC cell line growth inhibition [RAS]; conditions: second compound 0.3 µM; first compound 3.16 µM; active compounds read low;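 also: spheroids exposed to agents for seven days before readout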

compound: CCC(CC)c1cc(NC2CCC(N)C2)n2nccc2n1 (configuration not stated) + CCn1c(-c2cccnc2C(C)OC)c2c3cc(ccc31)N1CCOC(CC(NC(=O)C(C(C)C)N(C)C(=O)C3(F)CCN(C(=O)C#CC(C)(C)N(C)C)CC3)C(=O)N3CCCC(N3)C(=O)OCC(C)(C)C2)C1
viability, T/C / %: 2.28
--
compound: NC1c2ccccc2OC12CCN(c1cnc3c(N4CCCc5ncccc54)n[nH]c3n1)CC2 (configuration not stated) + CCn1c(-c2cc(N3CCN(C)CC3)cnc2C(C)OC)c2c3cc(ccc31)-c1csc(n1)CC(NC(=O)C1CC1C)C(=O)N1CCCC(N1)C(=O)OCC(C)(C)C2
viability, T/C / %: 4.65

Data provenance: PubChem BioAssay AID2060893
